- System: A-431
- assayExplanation: Growth inhibition of human A431 cells after 72 hrs by SRB assay
- Assay type: functional, cell-based
- conditionSummary: A-431, 72 h
Lab note: anything with IC50 below 40 µg/mL is marked 1.0; values at 40 µg/mL or higher are marked 0.0.

Please let me know if Cc1cc(=O)c2ccc(O)c(CN(CCc3ccccc3)Cc3ccc([N+](=O)[O-])cc3)c2o1 shows IC50 below 40 µg/mL.
0.0

Please let me know if Cc1cc(=O)c2ccc(O)c(CN(Cc3ccccc3)Cc3ccccc3)c2o1 shows IC50 below 40 µg/mL.
1.0

Please let me know if COc1ccc(CCN(Cc2ccccc2)Cc2c(O)ccc3c(=O)cc(C)oc23)cc1OC shows IC50 below 40 µg/mL.
0.0

Please let me know if COc1ccc(CN(Cc2ccc3ccccc3c2)Cc2c(O)ccc3c(=O)cc(C)oc23)cc1 shows IC50 below 40 µg/mL.
1.0

Please let me know if COc1ccc(CCN(Cc2ccccc2)Cc2c(O)ccc3c(=O)cc(C)oc23)cc1 shows IC50 below 40 µg/mL.
1.0

Please let me know if CCN(CCc1ccccc1)Cc1c(O)ccc2c(=O)cc(C)oc12 shows IC50 below 40 µg/mL.
0.0

Please let me know if COc1ccc(CN(Cc2ccc([N+](=O)[O-])cc2)Cc2c(O)ccc3c(=O)cc(C)oc23)cc1 shows IC50 below 40 µg/mL.
0.0

Please let me know if Cc1cc(=O)c2ccc(O)c(CN(CCc3ccccc3)Cc3ccccc3)c2o1 shows IC50 below 40 µg/mL.
1.0

Please let me know if CCN(Cc1ccc(OC)cc1)Cc1c(O)ccc2c(=O)cc(C)oc12 shows IC50 below 40 µg/mL.
0.0

Please let me know if COc1ccc(CN(Cc2ccccc2)Cc2c(O)ccc3c(=O)cc(C)oc23)cc1 shows IC50 below 40 µg/mL.
0.0

* * *

Would you kindly list IC50 for each of these compounds?
- System: SK-MEL-2
- assayExplanation: Growth inhibition of human SK-MEL-2 cells after 72 hrs by SRB assay
- Format: functional, cell-based
- conditionSummary: SK-MEL-2, 72 h

According to the records, this compound COc1ccc(CN(CCc2ccccc2)Cc2c(O)ccc3c(=O)cc(/C=C/c4ccccc4)oc23)cc1 displays IC50 of > 100 µg/mL

According to the records, this compound COc1ccc(CN(Cc2ccc([N+](=O)[O-])cc2)Cc2c(O)ccc3c(=O)cc(C)oc23)cc1 displays IC50 of > 100 µg/mL

According to the records, this compound COc1ccc(CN(Cc2ccc3ccccc3c2)Cc2c(O)ccc3c(=O)cc(C)oc23)cc1 displays IC50 of > 100 µg/mL
